Data origin: patent US20050226874A1

Biological target: T1, membranous CD4 (wild human CD4 expressed on cells) (human, UniProt P01730 26-458)
T1 construct: whole, on cells; also called T A2.01/CD4 cells; T AN2.01/CD4 cells
Assay: flow cytometry, T A2.01/CD4 cells, Fab at 1 µg/ml, fluorescein-labeled anti-kappa chain antibody
property.measured: percent of cells under the marker bar of the histogram (%)
Numeric answer only, unit % assumed.

Q: Find the recorded percent of cells under the marker bar of the histogram belonging to control mutant Fab V61-H of the 13B8.2 antibody (Fab, V domains shown, Chimeric Fab with human CH1-γ1 and Cκ; baculovirus/Sf9; Control position, not a Spot contributor residue; also called V61-Hcontrol) VH: QVQLKQSGPGLVQPSQSLSITCTVSGFSLTTFGVHWVRQSPGKGLEWLGVIWRSGITDYNAPFMSRLSITKDNSKSQVFFKLNSLQPDDTAIYYCAKNDPGTGFAYWGQGTLVTVSA VL: DIQMTQSPASLSASVGETVTFTCRASENIYSYLAWYQQKQGKSPQLLVHDAKTLAEGVPSRFSGGGSGTQFSLKINTLQPEDFGTYYCQHHYGNPPTFGGGTKLEIK and report it.
Result: 62.9
